Origin of values: PubChem BioAssay (NCI)

tested on: M14 melanoma; test: NCI-60 one-dose screen, 48 h (100 = growth as untreated, 0 = no growth, -100 = all killed); conditions: 10 µM unless noted
The panel holds about 83,000 compounds, 20% with a hit somewhere; the sample as a whole holds those more often.
Measured quantity: growth (%)
Return type: number; implicit unit %.

Molecule | growth / %
Fc1cccc(CNc2c3ccccc3nc3ccccc23)c1 | 38.8
CCOC(=O)c1cnn(CC(C)O)c1NC(=O)NCc1cccc(F)c1 (stereo not drawn) | 83.2
CN(C)C1CN(C(=O)c2cc(-c3ccc4ncnc(N5CCc6cc(F)c(Cl)cc65)c4c3)cnc2N)C1 | 9.34

Task: Any idea what its growth is? The molecule is `O=S(O)c1cc(Cl)cc(Cl)c1OCc1ccccc1`
Output: 101

Task: Please do the same for `O=C(Nc1cc(Cl)ccc1O)c1ccccc1Nc1ccnc(C(F)(F)F)c1` as well.
Output: 36

Task: Please do the same for `COC(=O)/C=C1/SC(=Nc2ccc(F)cc2)N(CCc2c[nH]c3ccc(O)cc23)C1=O` as well.
Output: 40.1

----------
system: HS 578T breast; experiment: NCI-60 one-dose screen, 48 h (100 = growth as untreated, 0 = no growth, -100 = all killed); settings: 10 µM unless noted
This is part of a sample that, as a whole, favours compounds with a hit. Of some 83,000 tested, about 20% had one in any assay.
Measured quantity: growth (%)
Return type: number; implicit unit %.

Compound | Tested target | growth, %
Cc1cn(C)cn1 | HS 578T breast | 138
CS(=O)(=O)c1ccc(-c2nc3ccccc3n2CC(=O)N/N=C/c2ccccc2)cc1 | HS 578T breast | 102
C=C1CC[C@@H]2C(C)(C)[C@H](O)CC[C@@]2(C)[C@@H]1COc1ccc2ccc(=O)oc2c1 | HS 578T breast | 69.8
CN(C)Cc1cc(C(C)(C)C)cc(Br)c1O | HS 578T breast | 30.7
CCOC(=O)C#Cc1c(C(=O)OCC)nnn1[C@@H]1O[C@H](COC)[C@@H](OC)[C@H]1OC | HS 578T breast | 97
O=C(/C=C/c1ccco1)Nc1ncc(Cc2cc(Cl)ccc2Cl)s1 | HS 578T breast | 8.67
Clc1ccc(Nc2ncc(Cc3cccc(Cl)c3Cl)s2)cc1 | HS 578T breast | 102
N#Cc1c(-c2ccccc2)nc2c(c(-c3ccccc3)nn2-c2ccccc2)c1-c1ccc(N2CCCCC2)cc1 | HS 578T breast | 109

Task: Any idea what its growth is? The compound is `CN(C)CCC(CCN(C)C)(C(=O)O)c1ccccc1`
Output: 111

Task: Please do the same for `COc1ccc(C/C(C)=C(\c2ccc(O)cc2)c2ccc(OCCN3CCCCC3)cc2)cc1` as well.
Output: 86.8

----------
test system: MDA-MB-435 melanoma; experiment: NCI-60 one-dose screen, 48 h; conditions: 10 µM unless noted
This is part of a sample that, as a whole, favours compounds with a hit. Of some 83,000 tested, about 20% had one in any assay. Active and inactive are the calls of the source. How the source made its calls: active means growth percent below 10; inactive means the rest.
Mark one answer only. Choices: True = active, False = inactive

Molecule | Cat
CSc1ccc(N2C(=N)C(=S)N(c3ccc(C)cc3)C2=O)cc1 | False
CC(=O)c1c(Nc2cccc(F)c2)[nH]c2c(Cl)cc(Cl)c(Cl)c2c1=O | True
CC1=Nc2cnc(Nc3ccc(N4CCCCC4)cc3)nc2Nc2ccccc21 | False

Task: Please indicate how the test categorized `N#Cc1c(-c2ccccc2)nc2c(c(-c3ccccc3)nn2-c2ccccc2)c1-c1ccc(N2CCCCC2)cc1` .
Output: False

Task: Please do the same for COC1/C=C/OC2(C)Oc3c(C)c(O)c4c(O)c(c(/C=N/N(c5ccccc5)c5ccccc5)c(O)c4c3C2=O)NC(=O)C(C)=C/C=C/C(C)C(O)C(C)C(O)C(C)C(OC(C)=O)C1C (stereo unspecified) as well.
Output: False

Task: Please do the same for `COc1ccc(C/C(C)=C(\c2ccc(Cl)cc2)c2ccc(OCCCN(C)C)cc2)cc1` as well.
Output: False

Task: Please do the same for `O=C1c2cccnc2C(=O)c2c1c(C(=O)OCCc1ccccn1)c1ccccn21` as well.
Output: True

Task: Please do the same for `Cc1ccc2c(/C=C/C(=O)c3cc(CN4CCOCC4)c(O)c4nc(C)ccc34)cc(CN3CCOCC3)c(O)c2n1` as well.
Output: True

Task: Please do the same for `CC(=O)O[C@H]1CC[C@]2(C)[C@H]3CC=C4[C@@H]5CC(C)(C)CC[C@]5(C(=O)N5CCN(CCC#N)CC5)CC[C@@]4(C)[C@]3(C)CC[C@H]2C1(C)C` as well.
Output: False

Task: Please do the same for `C=CN(C(=O)N1CCN(c2cc3c(cc2F)c(=O)c(C(=O)O)cn3C2CC2)CC1)c1nc(-c2ccccc2)cs1` as well.
Output: False

Task: Please do the same for `CC(=O)c1sc(-c2ccc(F)cc2)cc1O` as well.
Output: False
